Biological target: T1, EsCas13d, nuclease-dead (Eubacterium siraeum, UniProt B0MS50, R295A;H300A;R849A;H854A)
T1 sequence: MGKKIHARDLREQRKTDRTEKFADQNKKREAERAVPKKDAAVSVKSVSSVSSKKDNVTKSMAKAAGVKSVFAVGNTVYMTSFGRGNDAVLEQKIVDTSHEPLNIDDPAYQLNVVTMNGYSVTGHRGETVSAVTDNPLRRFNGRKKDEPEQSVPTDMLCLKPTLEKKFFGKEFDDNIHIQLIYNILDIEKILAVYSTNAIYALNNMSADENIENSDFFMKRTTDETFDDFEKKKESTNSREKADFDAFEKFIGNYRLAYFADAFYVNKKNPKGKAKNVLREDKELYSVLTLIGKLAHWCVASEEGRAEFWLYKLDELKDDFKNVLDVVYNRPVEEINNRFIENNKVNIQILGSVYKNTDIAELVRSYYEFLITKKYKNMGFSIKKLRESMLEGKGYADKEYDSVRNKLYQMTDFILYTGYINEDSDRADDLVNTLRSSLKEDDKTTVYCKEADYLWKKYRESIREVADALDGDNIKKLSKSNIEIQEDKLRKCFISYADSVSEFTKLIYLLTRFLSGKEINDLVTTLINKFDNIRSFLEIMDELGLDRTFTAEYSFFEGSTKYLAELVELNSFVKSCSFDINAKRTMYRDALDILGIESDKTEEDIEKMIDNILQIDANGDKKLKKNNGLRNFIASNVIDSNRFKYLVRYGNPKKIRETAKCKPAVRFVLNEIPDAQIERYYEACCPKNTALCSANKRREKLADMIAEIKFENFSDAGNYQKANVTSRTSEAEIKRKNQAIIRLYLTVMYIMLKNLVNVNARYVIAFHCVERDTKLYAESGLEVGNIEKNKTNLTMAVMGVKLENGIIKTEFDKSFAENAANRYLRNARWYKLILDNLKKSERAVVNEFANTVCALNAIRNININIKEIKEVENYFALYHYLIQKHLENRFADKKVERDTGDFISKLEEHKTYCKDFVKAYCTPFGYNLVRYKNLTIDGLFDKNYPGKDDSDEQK
Test: crRNA (strand 1, pre-loaded); Mg2+; 40 mM Tris-HCl pH 7.5, 150 mM NaCl, 6 mM MgCl2, 1 mM DTT, 0.1% Tween-20, 0.2 mg/ml BSA; 25 C; 10 min per concentration, then washed
Conditions: tags: His6-TwinStrep-SUMO cleaved; N-terminal SNAP kept (SNAP-Surface 488); label: 3' end held by stalled T7 RNA polymerase
quantity: Kd (nM)

binder	quantity	endpointValue
target 2 MT 5'PFS GAC 3'PFS CAA (mixed) RNA 1: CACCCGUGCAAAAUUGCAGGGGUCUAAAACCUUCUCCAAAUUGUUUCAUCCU RNA 2: GGGAAUGGAUCCACAUCUACGAAUUCGACAGGAUGAAACAAUUUGGAGAAGCAAAGAUCGGAAGAGCACACGU	Kd	6.2
target 1 insG 3' of 19,insC 3' of 19 (mixed) RNA 1: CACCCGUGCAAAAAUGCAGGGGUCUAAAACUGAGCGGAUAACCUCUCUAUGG RNA 2: GGGAAUGGAUCCACAUCUACGAAUUCGUACCAUGCAGAGAGGUUAUCCGCUCACCGAGAUCGGAAGAGCACACGU	Kd	82
target 2 MT 5'PFS UAC 3'PFS CGG (mixed) RNA 1: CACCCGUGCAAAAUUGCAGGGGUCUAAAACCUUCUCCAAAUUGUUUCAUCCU RNA 2: GGGAAUGGAUCCACAUCUACGAAUUCUACAGGAUGAAACAAUUUGGAGAAGCGGAGAUCGGAAGAGCACACGU	Kd	3.6
target 2 MT 5'PFS GUC 3'PFS CAG (mixed) RNA 1: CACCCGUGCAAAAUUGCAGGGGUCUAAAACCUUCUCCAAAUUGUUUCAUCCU RNA 2: GGGAAUGGAUCCACAUCUACGAAUUCGUCAGGAUGAAACAAUUUGGAGAAGCAGAGAUCGGAAGAGCACACGU	Kd	17.9
